# Species: Homo sapiens
# experimental_details: Inhibition of collagen-induced platelet aggregation in human platelet rich plasma
# Format: functional
pEC50: −log10 of the molar value.
metric_name: pEC50

Recorded pEC50, per entry:
O=C(O)CCCCO/N=C(\c1ccccc1)c1cnccn1: 4.04
O=C(O)CCCCO/N=C(/c1ccccc1)c1ccnnc1: 3.79
O=C(O)CCCCCO/N=C(\c1cccc(C(F)(F)F)c1)c1cnccn1: 3.60

A = O=C(O)CCCCO/N=C(\c1ccnnc1)c1cccc(C(F)(F)F)c1
B = O=C(O)CCCCCO/N=C(/c1ccccc1)c1ccnnc1
C = O=C(O)CCCCCO/N=C(\c1ccccc1)c1cnccn1
D = O=C(O)CCCCO/N=C(/c1ccccc1)c1ccncn1
Q) Sort entries by pEC50 from minimum to maximum value. Response format: the labels, sorted as the prompt asks.
A) D, C, B, A

A = O=C(O)CCCCO/N=C(\c1cccc(C(F)(F)F)c1)c1cnccn1
B = O=C(O)CCCCO/N=C(/c1cccc(C(F)(F)F)c1)c1ccncn1
C = O=C(O)CCCCO/N=C(/c1cccnc1)c1cccc(C(F)(F)F)c1 [RIDOGREL]
Q) Descending sort on pEC50 required. To answer, write out the labels according to the requested order.
A) C, B, A

P = O=C(O)CCCCCO/N=C(/c1ccccc1)c1cccnn1
Q = O=C(O)CCCCCO/N=C(\c1ccccc1)c1ccnnc1
R = O=C(O)CCCCO/N=C(/c1cncnc1)c1cccc(C(F)(F)F)c1
S = O=C(O)CCCCCO/N=C(/c1ccccc1)c1cncnc1
Q) Sort ascending by pEC50. Answer by naming the labels in the order asked.
A) P, S, Q, R

###

# Species on record: Homo sapiens
# experimental_details: Inhibition of collagen-induced platelet aggregation in human platelet rich plasma
# Assay type: functional
pEC50: −log10 of the molar value.
metric_name: pEC50

O=C(O)CCCCO/N=C(/c1ccccc1)c1cncnc1: 3.72
O=C(O)CCCCCO/N=C(\c1cccc(C(F)(F)F)c1)c1ncccn1: 3.54
O=C(O)CCCCO/N=C(/c1ccccc1)c1cccnn1: 3.66
O=C(O)CCCCCO/N=C(/c1cccc(C(F)(F)F)c1)c1ccncn1: 3.74
O=C(O)CCCCCO/N=C(\c1cccc(C(F)(F)F)c1)c1cccnn1: 3.62
O=C(O)CCCO/N=C(\c1ccccc1)c1ccnnc1: 3.61
O=C(O)CCCCCO/N=C(\c1cncnc1)c1cccc(C(F)(F)F)c1: 3.54
O=C(O)CCCCO/N=C(\c1ccccc1)c1ccnnc1: 3.64

Provenance of the data: ChEMBL document CHEMBL1129433
